Molecular target: T1, recombinant hMCAM-His (human, UniProt P43121 24-559)
T1 construct: not shown: His tag
T1 chain: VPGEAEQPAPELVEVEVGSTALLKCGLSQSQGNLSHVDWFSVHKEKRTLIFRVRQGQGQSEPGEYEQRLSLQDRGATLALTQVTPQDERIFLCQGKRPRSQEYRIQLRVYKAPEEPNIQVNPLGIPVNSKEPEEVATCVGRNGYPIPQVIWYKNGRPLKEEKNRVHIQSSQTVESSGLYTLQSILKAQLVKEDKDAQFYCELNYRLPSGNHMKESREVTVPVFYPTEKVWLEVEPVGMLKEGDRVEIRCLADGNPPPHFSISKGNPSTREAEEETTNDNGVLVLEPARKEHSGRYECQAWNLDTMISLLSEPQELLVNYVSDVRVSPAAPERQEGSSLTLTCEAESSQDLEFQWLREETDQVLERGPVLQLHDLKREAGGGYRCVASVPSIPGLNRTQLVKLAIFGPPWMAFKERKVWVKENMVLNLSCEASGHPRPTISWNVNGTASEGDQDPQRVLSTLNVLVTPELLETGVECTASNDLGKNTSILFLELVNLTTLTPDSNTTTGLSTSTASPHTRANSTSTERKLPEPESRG
Test: ForteBio Octet Red, hMCAM-His analyte; Forte column 2; vs rodent 2107
Measured fold over rodent (Forte affinity) values are reported for all entries that follow.
Please give a number only; it is taken to be in fold.

Solved cases below.
rat anti-human MCAM monoclonal antibody clone 2107.4.10 (antibody, V domains shown, rat hybridoma antibody; elsewhere '83 or 84'); also called rodent 2107; murine 2107.4.10.18 anti-MCAM antibody) VH: QVQLKESGPGLVQSSQTLSLTCTVSGFSLTSNGVSWVRQPPGKGLEWIAAISSGGSTYYNSAFKSRLSISRNTSKSQVLLKMNSLQTEDTGMYFCARHRPFYFDYWGQGVMVTVSS VL: DIQVTQSPSLLSASVGDRVTLNCKGSQNIYKSLAWFRLKRGEAPKLLIYDANSLQTGIPSRFSGSGSGTDFTLTITSLQPEDVATYFCQQYYSGYTFGAGTKLELK
1
h2107_VH1 + h2107_VL2 (antibody, human IgG1, V domains shown, also called VH1VL2) VH: QVTLKESGPVLVKPTETLTLTCTVSGFSLTSNGVSWVRQPPGKALEWIAAISSGGSTYYNSAFKSRLTISRDTSKSQVVLTMTNMDPVDTATYYCARHRPFYFDYWGQGTLVTVSS VL: DIQMTQSPSSLSASVGDRVTITCKGSQNIYKSLAWFQLKPGKVPKLLIYDANSLQTGIPSRFSGSGSGTDFTLTISSLQPEDVATYYCQQYYSGYTFGGGTKVEIK
2.8
h2107_VH2 + h2107_VL2 (antibody, human IgG1, V domains shown, also called h2107VH2VL2; VH2VL2) VH: QVTLKESGPVLVKPTETLTLTCTVSGFSLTSNGVSWVRQPPGKALEWIAAISSGGSTYYNSAFKSRLSISRDTSKSQVVLTMTNMDPVDTATYYCARHRPFYFDYWGQGTLVTVSS VL: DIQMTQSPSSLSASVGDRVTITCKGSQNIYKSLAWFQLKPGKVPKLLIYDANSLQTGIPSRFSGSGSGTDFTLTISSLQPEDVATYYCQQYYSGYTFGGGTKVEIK
2.9

The binder listed as h2107_VH5 + h2107_VL2 (antibody, human IgG1, V domains shown) VH: QVTLKESGPVLVKPTETLTLTCTVSGFSLTSQGVSWVRQPPGKALEWIAAISSGGSTYYNSAFKSRLTISPDTSKSQVVLTMTNMDPVDTATYYCARHRPFYFDYWGQGTLVTVSS VL: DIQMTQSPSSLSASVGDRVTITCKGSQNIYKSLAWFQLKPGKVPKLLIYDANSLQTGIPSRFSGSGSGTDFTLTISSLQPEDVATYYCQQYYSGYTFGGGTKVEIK shows fold over rodent (Forte affinity) equal to 6

The binder listed as h2107_VH6 + h2107_VL2 (antibody, human IgG1, V domains shown) VH: QVTLKESGPVLVKPTETLTLTCTVSGFSLTSNAVSWVRQPPGKALEWIAAISSGGSTYYNSAFKSRLTISRDTSKSQVVLTMTNMDPVDTATYYCARHRPFYFDYWGQGTLVTVSS VL: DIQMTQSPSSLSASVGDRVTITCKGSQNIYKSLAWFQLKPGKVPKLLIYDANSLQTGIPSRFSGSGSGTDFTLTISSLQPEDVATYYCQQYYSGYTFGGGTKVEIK shows fold over rodent (Forte affinity) equal to 5.5
